Could you please report measured phosphorylation enrichment for the items listed next?
target: FGFR1 (UniProt P11362); experiment: phosphorylation enrichment, bacterial display (enrichment ratio); higher = better substrate or ligand; peptides without Tyr show the background
Sequence (P11362 whole entry, looked up): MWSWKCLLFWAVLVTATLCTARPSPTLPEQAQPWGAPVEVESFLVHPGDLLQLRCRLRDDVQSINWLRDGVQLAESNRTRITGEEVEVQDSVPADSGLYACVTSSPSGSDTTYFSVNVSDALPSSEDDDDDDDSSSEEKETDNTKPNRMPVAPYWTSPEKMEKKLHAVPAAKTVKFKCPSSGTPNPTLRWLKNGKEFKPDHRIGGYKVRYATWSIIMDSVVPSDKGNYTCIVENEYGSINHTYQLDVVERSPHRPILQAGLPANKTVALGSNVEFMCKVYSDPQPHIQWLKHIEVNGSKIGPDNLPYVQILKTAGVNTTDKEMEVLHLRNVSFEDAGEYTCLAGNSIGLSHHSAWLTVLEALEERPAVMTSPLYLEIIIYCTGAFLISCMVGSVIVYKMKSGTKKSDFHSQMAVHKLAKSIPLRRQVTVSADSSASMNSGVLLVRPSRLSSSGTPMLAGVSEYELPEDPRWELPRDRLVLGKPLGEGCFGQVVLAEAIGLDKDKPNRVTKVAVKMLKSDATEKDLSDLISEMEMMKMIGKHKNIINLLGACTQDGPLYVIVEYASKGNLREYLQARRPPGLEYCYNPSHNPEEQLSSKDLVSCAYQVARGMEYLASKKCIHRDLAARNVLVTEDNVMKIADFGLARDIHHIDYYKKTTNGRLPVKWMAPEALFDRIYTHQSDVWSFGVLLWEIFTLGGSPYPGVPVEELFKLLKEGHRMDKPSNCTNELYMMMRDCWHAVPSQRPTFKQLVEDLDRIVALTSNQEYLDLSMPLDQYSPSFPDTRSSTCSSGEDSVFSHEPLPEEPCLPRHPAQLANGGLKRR
Give the figure by itself; no unit, no explanation.

Req: Query phosphorylation enrichment on FGFR1 (UniProt P11362) for LERYIYNREEF [HLA-DPB1_Y59]
Resp: 0.564

Req: Query phosphorylation enrichment on FGFR1 (UniProt P11362) for ADGLEYPRTGL [MMUT_Y287_S288P]
Resp: 0.414

Req: Query phosphorylation enrichment on FGFR1 (UniProt P11362) for LTEEKYELKEG [TREM1_Y29]
Resp: 0.711

Req: Query phosphorylation enrichment on FGFR1 (UniProt P11362) for FQKNIYSEEPR [LMNA_Y211_L215P]
Resp: 0.478

Req: Query phosphorylation enrichment on FGFR1 (UniProt P11362) for NGTVSYAIVAG [CDH23_Y1672_T1671S]
Resp: 0.496

Req: Query phosphorylation enrichment on FGFR1 (UniProt P11362) for DRTVHYVDEKG [IFT140_Y216_G212R]
Resp: 0.413

Req: Query phosphorylation enrichment on FGFR1 (UniProt P11362) for KSIQLYDTPYE [SHB_Y297_G293S]
Resp: 0.521

Req: Query phosphorylation enrichment on FGFR1 (UniProt P11362) for RMSQRYGDVLQ [CYP1A2_Y72]
Resp: 0.89

Req: Query phosphorylation enrichment on FGFR1 (UniProt P11362) for LENSTYQFIHV [CRB1_Y760_R764H_YF]
Resp: 7.91

Req: Query phosphorylation enrichment on FGFR1 (UniProt P11362) for EAAFVYVISSA [WNT4_Y113_A114V]
Resp: 0.496

Req: Query phosphorylation enrichment on FGFR1 (UniProt P11362) for ADLVQYFMEHH [PTPN11_Y80_E76D_YF]
Resp: 0.501

Req: Query phosphorylation enrichment on FGFR1 (UniProt P11362) for QGLMPYGQPRP [SRRT_Y798]
Resp: 0.696

Req: Query phosphorylation enrichment on FGFR1 (UniProt P11362) for GHEFIYVDPMQ [PDGFRA_Y574_YF]
Resp: 10.8

Req: Query phosphorylation enrichment on FGFR1 (UniProt P11362) for TRSYDYMEGGD [FGF7_Y58]
Resp: 0.486

Req: Query phosphorylation enrichment on FGFR1 (UniProt P11362) for DYYDLYGGEKF [PTPN11_Y66]
Resp: 13.4

Req: Query phosphorylation enrichment on FGFR1 (UniProt P11362) for DEDYLCREELA [POR_Y575_Y575C]
Resp: 0.683

====

molecular target: FGFR1 (UniProt P11362); test: phosphorylation enrichment, bacterial display (enrichment ratio); higher = better substrate or ligand; peptides without Tyr show the background
Outcome label depends on phosphorylation enrichment relative to 0.7: at/above gives t, below gives f.

Req: Does phosphorylation enrichment meet or surpass 0.7 for YARECYSALPQ [SARS2_Y52_G51C] ?
Resp: t

Req: Does phosphorylation enrichment meet or surpass 0.7 for KRAIGHYSATS [FAM120A_Y327_Y327H] ?
Resp: f

Req: Does phosphorylation enrichment meet or surpass 0.7 for PPTFRYERGSR [INPPL1_Y663_YF] ?
Resp: t

Req: Does phosphorylation enrichment meet or surpass 0.7 for DSILVYQRKEQ [USH2A_Y1909_G1911R] ?
Resp: f

Req: Does phosphorylation enrichment meet or surpass 0.7 for YQLPYYNMVPS [BMPR1A_Y458] ?
Resp: t

Req: Does phosphorylation enrichment meet or surpass 0.7 for EQWRAYLEGTC [HLA-C_Y183_L180W] ?
Resp: f

Req: Does phosphorylation enrichment meet or surpass 0.7 for GEDEPYAEPFA [APBA1_Y183_S184A_YF] ?
Resp: f

Req: Does phosphorylation enrichment meet or surpass 0.7 for IEENGYNTYAS [FGF10_Y161] ?
Resp: f

Req: Does phosphorylation enrichment meet or surpass 0.7 for GLGVTYEQALA [MAP2_Y996] ?
Resp: f

Req: Does phosphorylation enrichment meet or surpass 0.7 for MDDPRYGMCPL [ZNF100_Y6] ?
Resp: f

Req: Does phosphorylation enrichment meet or surpass 0.7 for LTEHGYSFTTT [ACTB_Y198_R196H] ?
Resp: t

Req: Does phosphorylation enrichment meet or surpass 0.7 for LKFAIYFEARE [LAMA2_Y1258_YF] ?
Resp: t

Req: Does phosphorylation enrichment meet or surpass 0.7 for RNNIEYVRDIG [MUSK_Y577] ?
Resp: f

Req: Does phosphorylation enrichment meet or surpass 0.7 for NTPNTYLRVNV [ADD2_Y440] ?
Resp: f

Req: Does phosphorylation enrichment meet or surpass 0.7 for GGRKGYGGFSR [RECQL5_Y478_D480G] ?
Resp: f

Req: Does phosphorylation enrichment meet or surpass 0.7 for FFSSEYHFVGG [CTSC_Y345_YF] ?
Resp: t

Req: Does phosphorylation enrichment meet or surpass 0.7 for IYLGAYDRFLP [SLC22A5_Y486_V481I] ?
Resp: t

Req: Does phosphorylation enrichment meet or surpass 0.7 for TFEFRYLEDQD [CNOT3_Y746_R750Q_YF] ?
Resp: f

Req: Does phosphorylation enrichment meet or surpass 0.7 for NDQANYSLNTD [ADA_Y290] ?
Resp: f

Req: Does phosphorylation enrichment meet or surpass 0.7 for KRISCYEARYQ [PFKFB3_Y194_S197R] ?
Resp: f

Req: Does phosphorylation enrichment meet or surpass 0.7 for TFHNTYHSHMR [IL1RAPL1_Y615_Q618H] ?
Resp: f

Req: Does phosphorylation enrichment meet or surpass 0.7 for FSMGCYEISLG [HMGCL_Y198_YF] ?
Resp: f

====

target: Grb2 SH2 (UniProt P62993); assay: SH2 binding enrichment of the phosphorylated peptide, bacterial display (enrichment ratio); higher = better substrate or ligand; peptides without Tyr show the background
Sequence (P62993 whole entry, looked up): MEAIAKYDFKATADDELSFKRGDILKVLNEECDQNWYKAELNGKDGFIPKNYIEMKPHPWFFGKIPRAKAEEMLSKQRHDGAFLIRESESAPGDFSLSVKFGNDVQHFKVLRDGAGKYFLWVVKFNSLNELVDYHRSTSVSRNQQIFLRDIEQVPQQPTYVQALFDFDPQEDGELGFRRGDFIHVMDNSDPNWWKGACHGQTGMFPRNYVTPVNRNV
Outcome label depends on SH2 binding enrichment relative to 0.9: at/above gives Satisfied, below gives Not satisfied.

Req: Does SH2 binding enrichment meet or surpass 0.9 for LIHLHYIRKDF [BBS4_Y43_YF] ?
Resp: Satisfied

Req: Does SH2 binding enrichment meet or surpass 0.9 for CATIHYNYMCN [TP53_Y234_T230A] ?
Resp: Satisfied

Req: Does SH2 binding enrichment meet or surpass 0.9 for IFLGAYDRFLP [SLC22A5_Y486_V481I_YF] ?
Resp: Satisfied

Req: Does SH2 binding enrichment meet or surpass 0.9 for RGFRQYAFDGK [HLA-A_Y140_D140Y_YF] ?
Resp: Not satisfied

Req: Does SH2 binding enrichment meet or surpass 0.9 for GLGVTYEQALA [MAP2_Y996] ?
Resp: Not satisfied

Req: Does SH2 binding enrichment meet or surpass 0.9 for RHFSSYSQMEN [PKP1_Y120_R116H] ?
Resp: Satisfied

Req: Does SH2 binding enrichment meet or surpass 0.9 for IVKAYYVHARA [AIPL1_Y268_R270H] ?
Resp: Satisfied

Req: Does SH2 binding enrichment meet or surpass 0.9 for VDSTEYEVASQ [SLC7A7_Y7] ?
Resp: Satisfied

Req: Does SH2 binding enrichment meet or surpass 0.9 for DGFIDYAEFAK [MCFD2_Y138_YF] ?
Resp: Not satisfied

Req: Does SH2 binding enrichment meet or surpass 0.9 for VMTVDYSKTVV [SETD2_Y770] ?
Resp: Satisfied

Req: Does SH2 binding enrichment meet or surpass 0.9 for RGEKQYLATPL [ALOX12_Y295_A298T] ?
Resp: Not satisfied

Req: Does SH2 binding enrichment meet or surpass 0.9 for TLCLCYKETEE [ATP8B1_Y658_I661T] ?
Resp: Not satisfied

Req: Does SH2 binding enrichment meet or surpass 0.9 for SDVDLYQVRIA [PSMD9_Y70_T74I] ?
Resp: Not satisfied

Req: Does SH2 binding enrichment meet or surpass 0.9 for GTSLIYWILFT [G6PC3_Y214_T216I] ?
Resp: Not satisfied

Req: Does SH2 binding enrichment meet or surpass 0.9 for HEPKGYNANFC [TGFB2_Y341] ?
Resp: Satisfied

Req: Does SH2 binding enrichment meet or surpass 0.9 for QMQLKYSQSDL [SMC1A_Y714_R711Q] ?
Resp: Not satisfied

Req: Does SH2 binding enrichment meet or surpass 0.9 for ASTDFYKRGDF [PDHA1_Y243_YF] ?
Resp: Not satisfied

Req: Does SH2 binding enrichment meet or surpass 0.9 for DTKDDYSALSV [IL17RB_Y457_N458S] ?
Resp: Satisfied

====

target: c-Src SH2; assay: SH2 binding enrichment of the phosphorylated peptide, bacterial display (enrichment ratio); higher = better substrate or ligand; peptides without Tyr show the background
MEASUREMENT_KIND: SH2 binding enrichment
Give the figure by itself; no unit, no explanation.

Req: Query SH2 binding enrichment on c-Src SH2 for LLVVLNKYRCY [PSEN1_Y154_Y154N]
Resp: 0.536

Req: Query SH2 binding enrichment on c-Src SH2 for GSIQQYIYKQE [PRG4_Y1271]
Resp: 0.294

Req: Query SH2 binding enrichment on c-Src SH2 for EQWRAYLEGTC [HLA-C_Y183_L180W]
Resp: 0.466

Req: Query SH2 binding enrichment on c-Src SH2 for LIHLHYIRKDF [BBS4_Y43_YF]
Resp: 1.6

Req: Query SH2 binding enrichment on c-Src SH2 for GQKTLYSFFSP [UNG_Y8]
Resp: 0.589

Req: Query SH2 binding enrichment on c-Src SH2 for WLFFRYLPIGC [ATP2A2_Y836_A838P]
Resp: 0.796

Req: Query SH2 binding enrichment on c-Src SH2 for EKLIQYCQSKG [AKR1B1_Y199]
Resp: 0.572

Req: Query SH2 binding enrichment on c-Src SH2 for GCRSKHVGLWG [KCNQ1_Y184_Y184H]
Resp: 0.86

Req: Query SH2 binding enrichment on c-Src SH2 for ASELGYQFQAI [UROD_Y133_V134Q]
Resp: 0.826

Req: Query SH2 binding enrichment on c-Src SH2 for RNNIEYVRDIG [MUSK_Y577]
Resp: 0.634

Req: Query SH2 binding enrichment on c-Src SH2 for KLQKKYGPIFS [CYP17A1_Y60_YF]
Resp: 0.461

Req: Query SH2 binding enrichment on c-Src SH2 for LTEEKYELKEG [TREM1_Y29]
Resp: 0.494

Req: Query SH2 binding enrichment on c-Src SH2 for KQRKEYMHRWQ [IQGAP2_Y710_R714W]
Resp: 2.02

Req: Query SH2 binding enrichment on c-Src SH2 for EKIANYKEGTF [CLRN1_Y171_YF]
Resp: 0.443

Req: Query SH2 binding enrichment on c-Src SH2 for TVNIRYLLFPS [SERAC1_Y548_S543T]
Resp: 1.26

Req: Query SH2 binding enrichment on c-Src SH2 for EYLHKYKGFKI [SYNE1_Y6953_Q6951H]
Resp: 0.527

Req: Query SH2 binding enrichment on c-Src SH2 for TTICKYITPME [GUCY2C_Y839_S840I]
Resp: 0.661

Req: Query SH2 binding enrichment on c-Src SH2 for HGDDDYDDPEL [CLNK_Y69_S65G]
Resp: 0.565

Req: Query SH2 binding enrichment on c-Src SH2 for KANEYYPVVLI [ADAMTS18_Y765]
Resp: 0.404

Req: Query SH2 binding enrichment on c-Src SH2 for EFNINYNNELP [THG1L_Y228]
Resp: 0.55
